Reported pEC50 by item:
target: Kappa-type opioid receptor (Homo sapiens, UniProt P41145); test: Agonist activity at human kappa opioid receptor expressed in HEK293 cells assessed as inhibition of forskolin-induced cAMP accumulation measured after 5 hrs by One-Glo luciferase assay
Sequence (P41145 whole entry): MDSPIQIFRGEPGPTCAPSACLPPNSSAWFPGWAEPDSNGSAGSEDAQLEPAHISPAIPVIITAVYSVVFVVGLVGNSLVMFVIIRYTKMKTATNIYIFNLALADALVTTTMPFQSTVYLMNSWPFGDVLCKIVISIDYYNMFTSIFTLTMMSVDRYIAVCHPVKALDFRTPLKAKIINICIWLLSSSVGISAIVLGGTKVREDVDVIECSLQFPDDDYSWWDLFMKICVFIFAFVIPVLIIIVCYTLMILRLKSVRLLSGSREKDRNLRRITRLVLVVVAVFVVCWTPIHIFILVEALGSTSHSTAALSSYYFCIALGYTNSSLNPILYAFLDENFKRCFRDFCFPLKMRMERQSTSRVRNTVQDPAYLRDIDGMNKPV
pEC50: −log10 of the molar value. Where a SMILES comes first, the peptide text is derived from it. [ ]: non-standard residue; d: D form. The star is where a group is joined. N(Indan-2-yl)Gly = O=C(O)CNC1Cc2ccccc2C1; Morpholide = C1CN(*)CCO1

{"columns": ["compound", "pEC50"],
 "data": [
  ["CC(C)C[C@@H](NC(=O)[C@@H](Cc1ccccc1)NC(=O)[C@@H](C)NCCc1ccccc1)C(=O)N[C@H](CCCCN)C(=O)N1CCC(N)(C(=O)O)CC1", "< 9.00"],
  ["CC(C)C[C@@H](NC(=O)[C@@H](Cc1ccccc1)NC(=O)[C@@H]1Cc2ccccc2CN1)C(=O)N[C@H](CCCCN)C(=O)N1CCOCC1", "< 9.00"],
  ["CC(C)C[C@@H](NC(=O)[C@@H](Cc1ccccc1)NC(=O)CNC1Cc2ccccc2C1)C(=O)N[C@H](CCCCN)C(=O)N1CCOCC1 (H-[N(Indan-2-yl)Gly][dF][dL][dK]-Morpholide)", "< 9.00"]
]}
